system-tested: Alpha-1D adrenergic receptor (Homo sapiens, UniProt P25100)
Sequence (P25100 whole entry): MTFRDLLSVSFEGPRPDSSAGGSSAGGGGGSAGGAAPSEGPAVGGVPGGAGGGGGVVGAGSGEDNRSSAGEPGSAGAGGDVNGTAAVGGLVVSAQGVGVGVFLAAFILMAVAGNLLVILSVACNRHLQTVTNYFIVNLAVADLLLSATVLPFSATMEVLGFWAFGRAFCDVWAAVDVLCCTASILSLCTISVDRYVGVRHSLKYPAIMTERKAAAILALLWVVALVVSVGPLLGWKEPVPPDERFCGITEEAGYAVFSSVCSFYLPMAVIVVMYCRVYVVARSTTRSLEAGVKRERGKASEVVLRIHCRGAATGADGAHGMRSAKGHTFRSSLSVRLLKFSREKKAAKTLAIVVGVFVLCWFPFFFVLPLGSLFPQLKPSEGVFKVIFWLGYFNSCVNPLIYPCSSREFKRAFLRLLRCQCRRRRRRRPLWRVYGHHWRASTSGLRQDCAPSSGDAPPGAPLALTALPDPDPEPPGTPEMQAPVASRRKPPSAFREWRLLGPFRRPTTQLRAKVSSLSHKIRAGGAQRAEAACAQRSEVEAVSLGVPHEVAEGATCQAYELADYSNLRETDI
assay-metric: pKi
Give bare numbers, as −log10 of the molar value.

### Prompt Form field: reported pKi of Cl.Cn1c(=O)[nH]c2c([nH]c(=O)n2C)c1=N
### Response 6.30
